Origin of measurements: patent US20150203579A1

// log10(koff) lookup, one value per entry
# target-desc: T1, recombinant human PD-1 expressed with a C-terminal myc-myc-hexahistidine tag (human)
# T1 construct: monomeric; also called hPD-1-MMH; human PD-1-MMH
# T1 sequence (chain, as listed by the source limits assumed): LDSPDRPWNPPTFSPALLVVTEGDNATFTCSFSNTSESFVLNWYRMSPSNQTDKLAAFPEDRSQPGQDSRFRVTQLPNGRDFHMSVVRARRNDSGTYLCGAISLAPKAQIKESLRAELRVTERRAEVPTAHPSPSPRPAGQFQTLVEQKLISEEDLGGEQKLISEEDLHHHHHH
# procedure-details: SPR, mAb captured, 37C;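 note: rate constants from fitting sensorgrams to a 1:1 binding model, KD derived as kd divided by ka and half-life as ln2/(60·kd)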
recorded-metric: log10(koff) (log10 of the value in s⁻¹)

INSERT INTO measurements (binder, recorded_metric, obs_value) VALUES
  ('H2aM7798N (antibody, mouse IgG2a, V domains shown, Human variable regions, mouse IgG2a Fc; also called H2M7798N) VH: EVQLLESGGVLVQPGGSLRLSCAASGFTFSNFGMTWVRQAPGKGLEWVSGISGGGRDTYFADSVKGRFTISRDNSKNTLYLQMNSLKGEDTAVYYCVKWGNIYFDYWGQGTLVTVSS VL: DIQMTQSPSSLSASVGDSITITCRASLSINTFLNWYQQKPGKAPNLLIYAASSLHGGVPSRFSGSGSGTDFTLTIRTLQPEDFATYYCQQSSNTPFTFGPGTVVDFR', 'log10(koff)', -3.18),
  ('H4H7798N (antibody, human IgG4 S228P, kappa, V domains shown) VH: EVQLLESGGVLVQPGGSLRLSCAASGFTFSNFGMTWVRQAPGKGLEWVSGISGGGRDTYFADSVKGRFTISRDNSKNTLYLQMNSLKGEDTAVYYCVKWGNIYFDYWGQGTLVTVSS VL: DIQMTQSPSSLSASVGDSITITCRASLSINTFLNWYQQKPGKAPNLLIYAASSLHGGVPSRFSGSGSGTDFTLTIRTLQPEDFATYYCQQSSNTPFTFGPGTVVDFRR', 'log10(koff)', -2.77),
  ('H2aM7796N (antibody, mouse IgG2a, V domains shown, Human variable regions, mouse IgG2a Fc; also called H2M7796N) VH: QVQLVESGGGVVQPGRSLRLSCAASGFTFSSYGMHWVRQAPGKGLEWVAIIWSDGDSEYNLDSVKGRFTISRDNSKNTLYLQMNSLRVEDSAVYYCARDRDLEDIWGQGTMVTVSS VL: DIQMTQSPSSLSASVGDRVTITCRASQGIRNDLGWYQQKPGKAPKRLIYAASNLQSGVPSRFSGSGSGTEFTLTISSLQPEDFATYYCLQHNSYPLTFGGGTKVEIK', 'log10(koff)', -1.78),
  ('H1M7800N (antibody, mouse IgG1, V domains shown, Human variable regions, mouse IgG1 Fc) VH: EVQLVESGGGLVQPGGSLRLSCAASGFTVSNNYMSWVRQAPGKGLEWVSVIYSGGFTYYTDSVKGRFTISRHNSKNTLYLQMNSLRAEDTAVYYCARYYYDTSDYWTFFDYWGQGTLVTVSS VL: EIVMTQSPATLSVSPGERATLSCRASQSVSSNLAWYQQKPGQAPRLLIYGASTRATGIPARFSGSGSGTEFTLTISSLQSGDFAVYYCQQYNNWPLTFGGGTKVEIN', 'log10(koff)', -1.40),
  ('H1M7789N (antibody, mouse IgG1, V domains shown, Human variable regions, mouse IgG1 Fc) VH: EVQLLESGGGLVQPGGSLRLSCSASGFTFSSYTMNWVRQAPGKGLEWVSGISDTGGNTYYTDSVKGRFTVSRDNSKNTLSLQMNSLRAEDTAVYYCAKDQGGSYPYYFHYWGQGSLVTVSS VL: DIQMTQSPSSLSASVGDRVTITCRASQSISSYLIWYQQKPGTAPKFLIYAASSLQSGVPSRFSGCGSGTDFTLTISSLQPEDFATYYCQQSYSTPPITFGQGTRLEIK', 'log10(koff)', -3.53),
  ('H2aM7795N (antibody, mouse IgG2a, V domains shown, Human variable regions, mouse IgG2a Fc; also called H2M7795N) VH: EVQVVESGGGLVEPGRSLRLSCKASGFTFDDYAMHWVRQTPGKALEWVSGINWSGNNIGYADSVKGRFTISKDDAKNSLYLQMNSLRPEDTALYYCTKDISITGTLDAFDVWGQGTMVTVSS VL: DIQMTQSPISVSASVGDRVTITCRASQGISNWLAWYQQKPGIAPKLLIYSASSLQSGVPSRFRGSGSGTDFTLTIGSLQPEDFATYYCQQAHSFPLTFGGGTKVEIK', 'log10(koff)', -2.34),
  ('H2aM7780N (antibody, mouse IgG2a, V domains shown, Human variable regions, mouse IgG2a Fc (H2aM prefix); also called H2M7780N) VH: QVQLVESGGGVVQSGRSLRLSCAASGFTFSSYGMHWVRQAPGKGLEWVAVIWYDGSNIYYSDSVKGRFTISRANSKNTLYLQMNSLRAEDTAVYYCARPGHWNYFFEYWGQGTLVTVSS VL: DIQMTQSPSSLSASVGDRVTITCRASQSINNYLNWYQQKPGKAPKLLIYTASSLQSGVPSRFSGSGSGTDFTLTISSLQPEDFATYYCQQSYSTPPLTFGQGTQLEIK', 'log10(koff)', -2.82),
  ('H2aM7791N (antibody, mouse IgG2a, V domains shown, Human variable regions, mouse IgG2a Fc; also called H2M7791N) VH: QMQLQQWGAGLLKPSETLSLTCVVYGGSLNGYYWSWIRQSPGKGLEWIGEIDHSGSTNYNPSLKNRVTMSVDTSKIQFSLKLTSVTVADTAVYYCAREGLLPFDYWGQGTLVTVSS VL: EIVLTQSPGTLSLSPGERVTLSCRASQSVYSNYLAWYQQNPGQAPRLLIYAASNRATGIPDRFSGSGSGTDFTLTISRLEPEDFAVYYCHQYATSPWTFGQGTKVEIK', 'log10(koff)', -2.65),
  ('H4H7795N2 (antibody, human IgG4 S228P, kappa, V domains shown) VH: EVQVVESGGGLVEPGRSLRLSCKASGFTFDDYAMHWVRQTPGKALEWVSGISWSGNNIGYADSVKGRFTISKDDAKNSLYLQMNSLRPEDTALYYCTKDISITGTLDAFDVWGQGTMVTVSS VL: DIQMTQSPISVSASVGDRVTITCRASQGISNWLAWYQQKPGIAPKLLIYSASSLQSGVPSRFRGSGSGTDFTLTIGSLQPEDFATYYCQQAHSFPLTFGGGTKVEIKR', 'log10(koff)', -2.18),
  ('H1M7799N (antibody, mouse IgG1, V domains shown, Human variable regions, mouse IgG1 Fc) VH: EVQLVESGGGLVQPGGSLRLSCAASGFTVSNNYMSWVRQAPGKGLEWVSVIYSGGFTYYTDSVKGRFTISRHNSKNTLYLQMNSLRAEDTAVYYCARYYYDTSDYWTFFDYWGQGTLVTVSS VL: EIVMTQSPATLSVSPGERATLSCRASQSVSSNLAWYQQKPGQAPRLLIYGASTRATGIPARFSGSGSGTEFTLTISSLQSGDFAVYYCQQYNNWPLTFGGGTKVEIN', 'log10(koff)', -1.37);
